molecular target: hSCN3A sodium channels (Homo sapiens, UniProt Q9NY46); construct: expressed in transfected cells; experiment: hSCN3A electrophysiology, Ionworks Quattro automated platform (Table C); type: cell-based; details: 3 μM compound, read-out: SCN3A % INHIB HTS IWQ 3 μM
Sequence (Q9NY46 whole entry): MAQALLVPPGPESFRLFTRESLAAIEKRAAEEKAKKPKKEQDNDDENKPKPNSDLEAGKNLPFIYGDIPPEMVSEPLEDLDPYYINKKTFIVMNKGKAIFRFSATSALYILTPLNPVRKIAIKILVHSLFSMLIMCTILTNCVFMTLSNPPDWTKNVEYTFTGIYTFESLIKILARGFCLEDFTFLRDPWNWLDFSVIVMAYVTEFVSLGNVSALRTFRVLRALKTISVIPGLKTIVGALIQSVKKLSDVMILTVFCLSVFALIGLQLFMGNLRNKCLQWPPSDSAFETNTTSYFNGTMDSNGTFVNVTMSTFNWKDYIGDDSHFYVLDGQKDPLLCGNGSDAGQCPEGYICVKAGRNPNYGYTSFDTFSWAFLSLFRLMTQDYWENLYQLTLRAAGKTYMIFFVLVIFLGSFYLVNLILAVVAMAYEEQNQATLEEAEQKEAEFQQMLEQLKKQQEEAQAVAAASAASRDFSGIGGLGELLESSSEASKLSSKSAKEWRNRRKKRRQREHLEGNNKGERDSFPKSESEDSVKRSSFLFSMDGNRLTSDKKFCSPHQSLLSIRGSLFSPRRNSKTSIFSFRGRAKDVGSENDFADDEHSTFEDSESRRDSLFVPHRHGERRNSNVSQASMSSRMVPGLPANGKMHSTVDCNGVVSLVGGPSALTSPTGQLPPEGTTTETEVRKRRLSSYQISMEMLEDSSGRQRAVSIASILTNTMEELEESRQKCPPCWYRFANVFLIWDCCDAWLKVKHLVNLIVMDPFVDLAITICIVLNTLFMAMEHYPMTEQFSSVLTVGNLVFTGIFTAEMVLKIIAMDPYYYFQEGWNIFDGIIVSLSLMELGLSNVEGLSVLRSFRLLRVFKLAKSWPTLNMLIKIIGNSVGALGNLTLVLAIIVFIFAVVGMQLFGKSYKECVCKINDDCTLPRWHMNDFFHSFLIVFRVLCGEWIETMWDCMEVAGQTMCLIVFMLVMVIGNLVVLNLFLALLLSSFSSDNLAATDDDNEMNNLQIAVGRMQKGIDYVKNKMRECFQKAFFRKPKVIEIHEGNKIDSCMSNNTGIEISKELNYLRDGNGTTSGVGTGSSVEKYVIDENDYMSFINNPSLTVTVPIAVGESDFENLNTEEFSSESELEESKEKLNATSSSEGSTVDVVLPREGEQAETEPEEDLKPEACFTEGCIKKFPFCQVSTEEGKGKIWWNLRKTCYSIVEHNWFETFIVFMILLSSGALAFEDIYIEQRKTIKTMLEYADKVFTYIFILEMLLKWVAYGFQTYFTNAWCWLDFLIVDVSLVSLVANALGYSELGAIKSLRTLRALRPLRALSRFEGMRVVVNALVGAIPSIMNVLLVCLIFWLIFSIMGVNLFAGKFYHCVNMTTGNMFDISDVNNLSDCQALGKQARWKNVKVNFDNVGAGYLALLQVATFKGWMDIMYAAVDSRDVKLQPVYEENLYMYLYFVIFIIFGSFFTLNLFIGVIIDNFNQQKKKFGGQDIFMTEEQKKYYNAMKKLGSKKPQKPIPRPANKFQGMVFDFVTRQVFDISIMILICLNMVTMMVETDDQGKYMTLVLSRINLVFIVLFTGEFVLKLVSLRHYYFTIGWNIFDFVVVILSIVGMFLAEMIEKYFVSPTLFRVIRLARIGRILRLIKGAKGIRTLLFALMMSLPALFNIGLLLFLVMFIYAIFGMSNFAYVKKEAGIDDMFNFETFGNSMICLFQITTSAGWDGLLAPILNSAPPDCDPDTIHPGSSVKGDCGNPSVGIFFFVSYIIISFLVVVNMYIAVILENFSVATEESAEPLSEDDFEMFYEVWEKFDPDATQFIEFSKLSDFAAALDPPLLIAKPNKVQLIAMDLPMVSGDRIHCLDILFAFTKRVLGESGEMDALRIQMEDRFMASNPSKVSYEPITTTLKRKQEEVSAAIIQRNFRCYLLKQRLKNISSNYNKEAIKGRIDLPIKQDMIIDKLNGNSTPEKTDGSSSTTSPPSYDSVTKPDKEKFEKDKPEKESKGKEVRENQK
Measurement Label: inhibition at 3 µM (%)
Write the value in % as a bare number.

Here's what some known entries look like.
Molecule: O=C(c1ccc(S(=O)(=O)Nc2nccs2)cc1)N1CCCC(COc2ccc(F)cc2)C1 (centres unmarked) [Example 264]
Data Value: 16.9
--
Molecule: C[C@@H]([C@H](O)c1ccccc1)N(C)C(=O)c1ccc(S(=O)(=O)Nc2nccs2)cc1 [Example 188]
Data Value: 14.5
--
Molecule: Cc1nccc(C2CCCN2C(=O)c2ccc(S(=O)(=O)Nc3nccs3)cc2)n1 (centres unmarked) [Example 212]
Data Value: 14.7
--
Molecule: O=C(N[C@@H]1CCC[C@@H]1c1ccc(F)cc1)c1ccc(S(=O)(=O)Nc2nccs2)cc1 [Example 132]
Data Value: 19.7
--
Molecule: C[C@H]([C@@H](O)c1ccccc1)N(C)C(=O)c1ccc(S(=O)(=O)Nc2nccs2)cc1 [Example 241]
Data Value: 21.7

Task item: I am curious: what inhibition at 3 µM value has been reported for O=C(c1ccc(S(=O)(=O)Nc2nccs2)cc1)N(Cc1ccccc1)[C@@H](CO)c1ccccc1 [Example 208] ?
Reply: 3.57

Task item: Fill in: inhibition at 3 µM of O=C(N[C@@H](CO)Cc1ccccc1)c1ccc(S(=O)(=O)Nc2nccs2)cc1 [Example 185] is ___
Reply: 20.9

Task item: Reported inhibition at 3 µM, molecule O=C(NC1(Cc2ccccc2Cl)CC1)c1ccc(S(=O)(=O)Nc2nccs2)cc1 [Example 129] : ____
Reply: 13.6

---

biological target: hSCN3A sodium channels (Homo sapiens); construct: expressed in transfected cells; assay: hSCN3A electrophysiology, whole-cell patch-clamp or PatchXpress 7000, estimated IC-50 (Table B); type: cell-based; conditions: estimated IC-50; hSCN3A cells, whole-cell patch-clamp or PatchXpress 7000; read-out: SCN3A EIC-50
Reported pIC50 by item:
// returns pIC50 (minus log10 of molar concentration), number only

Task item: So what does the record say about pIC50 for Cc1ccc(CNC(=O)c2ccc(S(=O)(=O)Nc3nccs3)cc2)cc1Cl [Example 400] ?
Reply: 7.15

Task item: State the recorded pIC50 for this entry: O=C(NCc1ccc(OC(F)(F)F)cc1)c1ccc(S(=O)(=O)Nc2ncc(Cl)s2)c(Cl)c1 [Example 362]
Reply: 5.96

Task item: Can you share its pIC50? I mean this compound: O=C(NCc1cccc(-c2ccccc2)c1)c1ccc(S(=O)(=O)Nc2nccs2)cc1 [Example 411]
Reply: 6.92

Task item: Find the recorded pIC50 belonging to O=C(c1ccc(S(=O)(=O)Nc2nccs2)cc1)N1CCOC(COc2cc(F)cc(F)c2)C1 (centres unmarked) [Example 262] and report it.
Reply: 5.16

Task item: Query: pIC50; subject: CC(C)(C)CCNC(=O)c1ccc(S(=O)(=O)Nc2ncc(Cl)s2)c(F)c1 [Example 389]
Reply: 6.21

Task item: Dear colleague, I am looking for the recorded pIC50 of the following compound: Cc1ccc(CNC(=O)c2ccc(S(=O)(=O)Nc3nccs3)cc2)cc1F [Example 62]
Reply: 5.99

Task item: Quick one: pIC50 for CC(C)(C)c1ccc(CNC(=O)c2ccc(S(=O)(=O)Nc3nccs3)cc2)cc1 [Example 387] ?
Reply: 6.77

Task item: Sample CC(C)(NC(=O)c1ccc(S(=O)(=O)Nc2nccs2)cc1)c1ccc(Cl)cc1 [Example 124] — what was its pIC50?
Reply: 5.74

---

target: hSCN3A sodium channels (Homo sapiens, UniProt Q9NY46); construct: expressed in transfected cells; assay: hSCN3A electrophysiology, whole-cell patch-clamp or PatchXpress 7000, estimated IC-50 (Table B); type: cell-based; details: estimated IC-50; hSCN3A cells, whole-cell patch-clamp or PatchXpress 7000; read-out: SCN3A EIC-50
pIC50: −log10 of the molar value.
Label True when pIC50 is at or above 6; anything below gets False.

Recorded results for 5 compounds are shown here.
Compound: O=C(NCc1cccc(C(F)(F)F)c1F)c1ccc(S(=O)(=O)Nc2nccs2)cc1
Category: True

Compound: O=C(NCc1ccc(-c2ccccc2)cc1)c1ccc(S(=O)(=O)Nc2nccs2)cc1
Category: True

Compound: O=C(NCc1ccc(F)c(OC(F)(F)F)c1)c1ccc(S(=O)(=O)Nc2ncc(Cl)s2)cc1
Category: True

Compound: O=C(NCCc1ccc(C(F)(F)F)cc1)c1ccc(S(=O)(=O)Nc2nccs2)cc1
Category: True

Compound: O=C(NCc1ccccc1-c1ccccc1)c1ccc(S(=O)(=O)Nc2nccs2)cc1
Category: True

Task item: Evaluate O=C(NCc1cc(F)cc(F)c1F)c1ccc(S(=O)(=O)Nc2nccs2)cc1 : pIC50 at minimum 6?
Reply: False

Task item: Has O=C(NCc1ccc(OC(F)(F)F)c(Cl)c1)c1ccc(S(=O)(=O)Nc2ncns2)cc1Cl a recorded pIC50 greater than or equal to 6?
Reply: True

Task item: State whether the measured pIC50 reaches 6, counting equality as reaching it, for O=C(c1ccc(S(=O)(=O)Nc2nccs2)cc1)N(Cc1ccccc1)[C@H]1CCCC[C@H]1CO
Reply: False

Task item: Test whether the compound O=C(NCc1ccc(F)c(C2CC2)c1)c1ccc(S(=O)(=O)Nc2nccs2)cc1 records pIC50 of 6 or higher.
Reply: True

Task item: Would you say CN(Cc1ccc(F)cc1)C(=O)c1ccc(S(=O)(=O)Nc2ncc(Cl)s2)cc1 shows pIC50 at minimum 6?
Reply: False

Task item: Assess whether reported pIC50 for N#Cc1cc(S(=O)(=O)Nc2ncc(Cl)s2)ccc1C(=O)NCc1ccc(C(F)(F)F)c(F)c1 sits at 6 or higher.
Reply: False

Task item: Evaluate O=C(NCc1ccc(OC(F)(F)F)c(F)c1)c1ccc(S(=O)(=O)Nc2ncns2)cc1Cl : pIC50 at minimum 6?
Reply: True

Task item: Item O=C(Nc1ccn(Cc2ccc(Cl)cc2)n1)c1ccc(S(=O)(=O)Nc2nccs2)cc1 with pIC50 of 6 or above?
Reply: True

---

Reported inhibition at 3 µM values are given for each entry in this list.
target: hSCN3A sodium channels (Homo sapiens, UniProt Q9NY46); construct: expressed in transfected cells; experiment: hSCN3A electrophysiology, Ionworks Quattro automated platform (Table C); type: cell-based; details: 3 μM compound, read-out: SCN3A % INHIB HTS IWQ 3 μM
Number in %, nothing else.

Molecule: O=C(c1ccc(S(=O)(=O)Nc2nccs2)cc1)N1CCOCC(Cc2ccc(F)cn2)C1 (centres unmarked)
Tgt: hSCN3A sodium channels (Homo sapiens, UniProt Q9NY46)
inhibition at 3 µM / %: 10.8
//
Molecule: Cc1cccc(CNC(=O)c2ccc(S(=O)(=O)Nc3nccs3)cc2)c1C
Tgt: hSCN3A sodium channels (Homo sapiens, UniProt Q9NY46)
inhibition at 3 µM / %: 29.7
//
Molecule: Cc1ccccc1O[C@@H]1CCN(C(=O)c2ccc(S(=O)(=O)Nc3nccs3)cc2)C1
Tgt: hSCN3A sodium channels (Homo sapiens, UniProt Q9NY46)
inhibition at 3 µM / %: 18.1
//
Molecule: O=C(NC(CO)c1ccccc1Cl)c1ccc(S(=O)(=O)Nc2nccs2)cc1 (centres unmarked)
Tgt: hSCN3A sodium channels (Homo sapiens, UniProt Q9NY46)
inhibition at 3 µM / %: 3.23

Task item: I would be grateful if you could share the reported inhibition at 3 µM for Cc1cccc(CN2CCN(C(=O)c3ccc(S(=O)(=O)Nc4nccs4)cc3)CC2=O)c1 .
Reply: 18.1

Task item: Item under review: O=C(c1ccc(S(=O)(=O)Nc2nccs2)cc1)N1CCCC(Cc2cncnc2)C1 (centres unmarked) . Reported inhibition at 3 µM?
Reply: 1.88

Task item: Reported inhibition at 3 µM, molecule CC(Cc1ccc(C(F)(F)F)cc1)NC(=O)c1ccc(S(=O)(=O)Nc2nccs2)cc1 (centres unmarked) : ____
Reply: 23.1

Task item: Value lookup for inhibition at 3 µM; key = O=C(NCc1cccc(Cl)c1)c1ccc(S(=O)(=O)Nc2nccs2)cc1
Reply: 42.2

---

Below, each entry is listed with its recorded inhibition at 10 µM.
molecular target: hSCN3A sodium channels (Homo sapiens, UniProt Q9NY46); construct: expressed in transfected cells; experiment: hSCN3A electrophysiology, Ionworks Quattro automated platform (Table C); type: cell-based; conditions: 10 μM compound, read-out: SCN3A % INHIB HTS IWQ 10 μM
Write the value in % as a bare number.

Compound: COc1ccc(CC2CCCN(C(=O)c3ccc(S(=O)(=O)Nc4nccs4)cc3)C2)cc1 (centres unmarked)
Tgt: hSCN3A sodium channels (Homo sapiens, UniProt Q9NY46)
inhibition at 10 µM (%): 45.7
//
Compound: CC(CNC(=O)c1ccc(S(=O)(=O)Nc2nccs2)cc1)c1ccccc1 (centres unmarked)
Tgt: hSCN3A sodium channels (Homo sapiens, UniProt Q9NY46)
inhibition at 10 µM (%): 40.8
//
Compound: Cc1cccc(CNC(=O)c2ccc(S(=O)(=O)Nc3nccs3)cc2)c1
Tgt: hSCN3A sodium channels (Homo sapiens, UniProt Q9NY46)
inhibition at 10 µM (%): 37.1
//
Compound: COc1ccc(CC2COCCN(C(=O)c3ccc(S(=O)(=O)Nc4nccs4)cc3)C2)cc1F (centres unmarked)
Tgt: hSCN3A sodium channels (Homo sapiens, UniProt Q9NY46)
inhibition at 10 µM (%): 7.42
//
Compound: C[C@@H]([C@H](O)c1ccccc1)N(C)C(=O)c1ccc(S(=O)(=O)Nc2nccs2)cc1
Tgt: hSCN3A sodium channels (Homo sapiens, UniProt Q9NY46)
inhibition at 10 µM (%): 1.03

Task item: Entry CC(CNC(=O)c1ccc(S(=O)(=O)Nc2nccs2)cc1)Oc1ccccc1 (centres unmarked) : reported inhibition at 10 µM = ?
Reply: 32.4

Task item: Which inhibition at 10 µM is listed for O=C(NCCOc1ccccc1F)c1ccc(S(=O)(=O)Nc2nccs2)cc1 ?
Reply: 43

Task item: What value of measured inhibition at 10 µM is listed for O=C(c1ccc(S(=O)(=O)Nc2nccs2)cc1)N1CCCC1c1ccccc1Cl (centres unmarked) ?
Reply: 51.9

Task item: Recorded inhibition at 10 µM of O=C(NCc1ccccc1OC(F)F)c1ccc(S(=O)(=O)Nc2nccs2)cc1 , please.
Reply: 34.4

Task item: Consider the compound Cc1cnc(NC(=O)c2ccc(S(=O)(=O)Nc3nccs3)cc2)c(C)c1 and give its measured inhibition at 10 µM.
Reply: 20.8

The measurements presented in this section are drawn from patent US8741934B2.
